Tested on: HL-60(TB) leukemia
METHOD_NOTES: NCI-60 one-dose screen, 48 h
CONDITION_LABEL: 10 µM unless noted
Compounds without any hit were thinned out: in the full panel of roughly 83,000, 20% have a hit. The source made the active and inactive calls. The calls were made as follows: active = growth percent below 10; inactive = the rest.
API: response.call in active, inactive

COc1ccc(/C=N/NC(=O)c2cnn(CC(O)Cc3ccccc3)c2N)cc1OC1CCCC1 (stereo not drawn) :: inactive
CCN(CC)CCCC(C)N=C(C1=C(C(=NC(C)CCCN(CC)CC)c2cccc(OC)c2)C(=O)NC1=O)c1cccc(OC)c1 (stereo not drawn) :: active
NCCc1cc(O)c(O)cc1O :: inactive
Cc1cc2nc3c(=O)[nH]c(=O)nc-3n(CC=O)c2cc1C :: active
O=c1ccc2nc(-c3ccccc3)nn(-c3ccccn3)c-2c1 :: active

Hi, sorry to bother you, what did the test record for CC(=O)[C@@H]1CC[C@]2(COS(=O)(=O)c3ccc(C)cc3)CC[C@]3(C)[C@H](CC[C@@H]4[C@@]5(C)CCCNC(C)(C)[C@@H]5CC[C@]43C)[C@@H]12 ? inactive

Outcome logged for C=C1CCC2C(C)(CO)C(O)CCC2(C)C1C/C=C1/C(=O)OCC1Oc1ccccc1C (stereo not drawn) in this assay: inactive

Test call, this compound: COc1cc(-c2nn(-c3ccc(NC(=O)Nc4ccc(Cl)c(Cl)c4)cc3)cc2-c2ccncc2)ccc1Cl active

How did this test come out for O=S(=O)(O)c1ccc(N=Nc2ccc(N=Nc3cccc4ccccc34)c(S(=O)(=O)O)c2)cc1 ? inactive

Hey, what did the test say about COc1cccc(C2=NN3C(C2)c2ccccc2OC3c2ccc(/C=C3\SC(=O)NC3=O)cc2)c1 (stereo not drawn) ? inactive

What is the recorded call for this compound in the test? N#CCCN1C/C(=C/c2ccccc2)C(=O)/C(=C/c2ccccc2)C1 inactive

Dear all, I need the recorded test outcome for S=c1n(CNc2ccc(Cl)nn2)nc(-c2cc(Cl)cc(Cl)c2Cl)n1/N=C/c1ccc(Cl)cc1 , thank you. active

For CCOC(=O)C(C)(c1ccccc1)c1ccccc1 , which call appears in the assay record? inactive
